Test system: KM12 colon
Assay: NCI-60 one-dose screen, 48 h (100 = growth as untreated, 0 = no growth, -100 = all killed)
Settings: 10 µM
The panel holds about 83,000 compounds, 20% with a hit somewhere; the sample as a whole holds those more often.
measurement_name: growth (%)
Write down the numeric answer in % and omit the unit.

• CCCCOC(=O)Oc1ccc(C(=O)Oc2ccc(OCC)cc2)cc1 = 94.8
• O=c1c2ccccc2nc(SCCN2CCCCC2)n1CCc1ccccc1 = 94.2
• CCCCOc1ccc(NC(=O)Nc2nnc(C)s2)cc1 = 103

Give the measured growth of CCOC(=O)C(=Cc1ccc(Br)cc1)C(=O)OCC .
-25.3

And N#Cc1cccc(OCc2nc(N)nc(N)c2-c2ccc(Cl)c(Cl)c2)c1 ?
25.2

Next entry: COc1cc(Cl)cc(-c2nn(-c3cccc(NC(=O)c4ccc(N5CCOCC5)c(C(F)(F)F)c4)c3)cc2-c2ccncc2)c1
38.4
